Listed next: entries and their corresponding protein stability index.
B1: ANKRD40 (parent)
chain: SLRENDFIEIELDRQELTYQELLR

# Variants of: B1
# Measurement protocol: protein stability index of a GFP-peptide fusion (GPS, HEK-293T) (PSI 1-6); higher = more stable;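 further: lentivirally expressed fusions sorted by FACS into six bins by GFP to DsRed ratio, PSI derived from sequencing read proportions per bin multiplied by bin number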
# Test context: c terminus: a fixed tail appended
In your answer, state the number alone without any accompanying words.

# query: protein stability index of entry "D13Q" 2.93

And for "Y19K" ? 3.99

Another variant to look at: "T18E" 3.49

Follow-up item: "I10C" 3.69

Another: "E16W" 2.55
